Test system: MB 5393 (COL), a methicillin-resistant S. aureus strain
assay-protocol: Determination of minimum and synergistic inhibitory concentration
Format: cell-based
particulars: MRSA COL, presence of imipenem (4 μg/mL), 22 hours
observed-property: SIC

compound	result
CCCCCCCCCc1ccc(-c2ccc3cc(C(=O)NCCC(=O)N[C@@H](CCCCN)C(=O)N(C)[C@@H]4C(=O)N[C@@H](C)C(=O)N[C@H](C(=O)O)Cc5ccc(O)c(c5)-c5cc4ccc5O)sc3c2)cc1 [EXAMPLE 47]	G (G: SIC <0.0625)
CCCCCCCCCc1ccc(-c2cccc3c(C(=O)NCCC(=O)N[C@@H](CCCCN)C(=O)N(C)[C@@H]4C(=O)N[C@@H](C)C(=O)N[C@H](C(=O)O)Cc5ccc(O)c(c5)-c5cc4ccc5O)cnn23)cc1 [EXAMPLE 65]	G (G: SIC <0.0625)
CCCCCc1ccc(-c2ccc(C(=O)NCCC(=O)N[C@@H](CCCCN)C(=O)N(C)[C@@H]3C(=O)N[C@@H](C)C(=O)N[C@H](C(=O)O)Cc4ccc(O)c(c4)-c4cc3ccc4O)cc2)cc1 [EXAMPLE 35]	G (G: SIC <0.0625)
CCCCCCCCc1ccc(-c2ccc(C(=O)NCCC(=O)N[C@@H](CCCCN)C(=O)N(C)[C@@H]3C(=O)N[C@@H](C)C(=O)N[C@H](C(=O)O)Cc4ccc(O)c(c4)-c4cc3ccc4O)cc2)cc1 [EXAMPLE 23]	G (G: SIC <0.0625)

====

assayed-system: SpsB (Staphylococcus aureus)
Construct: using a bacterial membrane fraction as a source of SpsB; from tissue
Sequence (P0A070 1-191): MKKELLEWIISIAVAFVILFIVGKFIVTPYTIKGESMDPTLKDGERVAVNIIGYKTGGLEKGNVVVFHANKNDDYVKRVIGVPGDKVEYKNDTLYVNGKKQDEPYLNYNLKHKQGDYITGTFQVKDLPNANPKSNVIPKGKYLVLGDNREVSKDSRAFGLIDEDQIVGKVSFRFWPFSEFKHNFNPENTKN
assay-protocol: Inhibition of SpsB enzyme activity (fluorescence-based assay, bacterial membrane fraction)
Type: biochemical
observed-property: IC50

compound	assayed-system	result
CCCc1ccc(-c2ccc(C(=O)NCCC(=O)N[C@@H](CCCNC(=N)N)C(=O)N(C)[C@@H]3C(=O)N[C@@H](C)C(=O)N[C@H](C(=O)O)Cc4ccc(O)c(c4)-c4cc3ccc4O)cc2)cc1.O=C(O)C(F)(F)F [EXAMPLE 8, trifluoroacetate]	SpsB (Staphylococcus aureus)	10 to 50 nM
CCCCCCCCCCc1ccc2cc(C(=O)NCCC(=O)N3CCCC3C(=O)N(C)[C@@H]3C(=O)N[C@@H](C)C(=O)N[C@H](C(=O)O)Cc4ccc(O)c(c4)-c4cc3ccc4O)ccc2c1 (stereo in doubt) [EXAMPLE 14]	SpsB (Staphylococcus aureus)	< 10 nM
CCCCCCCOCc1ccc(-c2ccc(C(=O)NCCC(=O)N[C@@H](CCCCN)C(=O)N(C)[C@@H]3C(=O)N[C@@H](C)C(=O)N[C@H](C(=O)O)Cc4ccc(O)c(c4)-c4cc3ccc4O)cc2)cc1 [EXAMPLE 36]	SpsB (Staphylococcus aureus)	< 10 nM
CCCCCCCCCc1ccc(-c2ccc(C(=O)NCCC(=O)N[C@@H](CCCCN)C(=O)N(C)[C@@H]3C(=O)N[C@@H](C)C(=O)N[C@H](C(=O)O)Cc4ccc(O)c(c4)-c4cc3ccc4O)c(F)c2)cc1 [EXAMPLE 66]	SpsB (Staphylococcus aureus)	10 to 50 nM
CCCCCCCCc1ccc(-c2ccc(C(=O)NCCC(=O)N[C@@H](CCCCN)C(=O)N(C)[C@@H]3C(=O)N[C@@H](C)C(=O)N[C@H](C(=O)O)Cc4ccc(O)c(c4)-c4cc3ccc4O)cc2)cc1 [EXAMPLE 23]	SpsB (Staphylococcus aureus)	< 10 nM

Working through the 8 compounds below one at a time, give IC50 for each.
1. CCCCCCCCCc1ccc(-c2ccc(C(=O)NCCC(=O)N[C@@H](CCCCN)C(=O)N(C)[C@@H]3C(=O)N[C@@H](C)C(=O)N[C@H](C(=O)O)Cc4ccc(O)c(c4)-c4cc3ccc4O)c3ccccc23)cc1 [EXAMPLE 52]
2. CCCCCCCCCc1ccc(-c2ccc3cc(C(=O)NCCC(=O)N[C@@H](CCCCN)C(=O)N(C)[C@@H]4C(=O)N[C@@H](C)C(=O)N[C@H](C(=O)O)Cc5ccc(O)c(c5)-c5cc4ccc5O)sc3c2)cc1 [EXAMPLE 47]
3. C[C@@H]1NC(=O)[C@@H](N(C)C(=O)[C@H](CCCCN)NC(=O)CCNC(=O)c2ccc(CCCCCCCCc3ccccc3)cc2)c2ccc(O)c(c2)-c2cc(ccc2O)C[C@@H](C(=O)O)NC1=O.O=C(O)C(F)(F)F [EXAMPLE 15]
4. C[C@@H]1NC(=O)[C@@H](N(C)C(=O)[C@H](CCCCN)NC(=O)CCNC(=O)c2ccc(-c3ccc(CC4CCCCC4)cc3)cc2)c2ccc(O)c(c2)-c2cc(ccc2O)C[C@@H](C(=O)O)NC1=O [EXAMPLE 27]
5. CC(C)CCCCCCc1ccc(-c2ccc(C(=O)NCCC(=O)N[C@@H](CCCCN)C(=O)N(C)[C@@H]3C(=O)N[C@@H](C)C(=O)N[C@H](C(=O)O)Cc4ccc(O)c(c4)-c4cc3ccc4O)cc2)cc1 [EXAMPLE 37]
6. CCCCCCCCCCc1ccc2cc(C(=O)NCCC(=O)N[C@@H](CCCC(=O)O)C(=O)N(C)[C@@H]3C(=O)N[C@@H](C)C(=O)N[C@H](C(=O)O)Cc4ccc(O)c(c4)-c4cc3ccc4O)ccc2c1 [EXAMPLE 60]
7. CCCc1ccc(-c2ccc(C(=O)NCCC(=O)N[C@@H](CCCCN)C(=O)N(C)[C@@H]3C(=O)N[C@@H](C)C(=O)N[C@H](C(=O)O)Cc4ccc(O)c(c4)-c4cc3ccc4O)cc2)cc1.O=C(O)C(F)(F)F [EXAMPLE 3, trifluoroacetate]
8. CCCCCCCCCCc1ccc2cc(C(=O)NCCC(=O)N[C@@H](CCCCNC(C)=O)C(=O)N(C)[C@@H]3C(=O)N[C@@H](C)C(=O)N[C@H](C(=O)O)Cc4ccc(O)c(c4)-c4cc3ccc4O)ccc2c1 [EXAMPLE 33]

1. < 10 nM
2. < 10 nM
3. < 10 nM
4. < 10 nM
5. < 10 nM
6. 10 to 50 nM
7. < 10 nM
8. < 10 nM

Working through the 3 compounds below one at a time, give IC50 for each.
1. C[C@@H]1NC(=O)[C@@H](N(C)C(=O)[C@H](CCCCN)NC(=O)CCNC(=O)c2ccc(-c3ccc(C4CCCCC4)cc3)cc2)c2ccc(O)c(c2)-c2cc(ccc2O)C[C@@H](C(=O)O)NC1=O [EXAMPLE 49]
2. CCCCCCCCCc1ccc(-c2ccc(C(=O)NCCC(=O)N3CCC[C@H]3C(=O)N(C)[C@@H]3C(=O)N[C@@H](C)C(=O)N[C@H](C(=O)O)Cc4ccc(O)c(c4)-c4cc3ccc4O)cc2)cc1 [EXAMPLE 18]
3. CCCCCCCCCCc1ccc2cc(C(=O)NCCC(=O)N3CC[C@H]3C(=O)N(C)[C@@H]3C(=O)N[C@@H](C)C(=O)N[C@H](C(=O)O)Cc4ccc(O)c(c4)-c4cc3ccc4O)ccc2c1 [EXAMPLE 20]

< 10 nM
< 10 nM
< 10 nM

Working through the 2 compounds below one at a time, give IC50 for each.
1. CCCCCCCCCc1ccc(-c2ncc(C(=O)NCCC(=O)N[C@@H](CCCCN)C(=O)N(C)[C@@H]3C(=O)N[C@@H](C)C(=O)N[C@H](C(=O)O)Cc4ccc(O)c(c4)-c4cc3ccc4O)cn2)cc1 [EXAMPLE 26]
2. CCCCCCCCCc1ccc(-c2ccc(C(=O)NCCC(=O)N3C[C@H](N)C[C@H]3C(=O)N(C)[C@@H]3C(=O)N[C@@H](C)C(=O)N[C@H](C(=O)O)Cc4ccc(O)c(c4)-c4cc3ccc4O)cc2)cc1 [EXAMPLE 40]

1. < 10 nM
2. < 10 nM
